Where these numbers come from: the supplement of paper PMC6555819

For each record, write down the corresponding PBM binding z-score.
Test system: LXRb homodimer (NR concentration 270 nM)
Assay: PBM binding z-score (relative to random genomic background probes); higher = stronger binding; sequences stand for … in GC…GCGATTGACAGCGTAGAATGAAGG
Numbers only.

Examples with answers:
{"chain": "GGAACAAGGGCAAAGTTGATAGCATCTGTCGACG", "PBM binding z-score": -0.0187}
{"chain": "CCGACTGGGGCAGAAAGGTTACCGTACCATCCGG", "PBM binding z-score": -1.05}
{"chain": "TATACAGGGGCAAAGGCCAGAGTACGAATGTCGA", "PBM binding z-score": 1.92}
{"chain": "GATACAGGGTCAGCTAGGGGCCAGAGTATGGAAA", "PBM binding z-score": -0.084}
{"chain": "CCTACTGGGCCAAAGGTCATTGCTTCCAATGCTC", "PBM binding z-score": 0.985}

Take each entry in turn and give its PBM binding z-score.
1. AATACAGGGTCATCGTAGGCCAAAGTACGCACAG
2. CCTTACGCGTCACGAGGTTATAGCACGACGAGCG
3. ACCCGGAGGACAAAGGTCAGAGCTACGCCAGTGA
4. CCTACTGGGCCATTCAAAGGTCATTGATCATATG
5. AGACTGAGGTTATTAAGATCAGGGAATTGCGGTC

Result block:
1: 1.6; 2: 0.329; 3: 0.448; 4: 0.576; 5: -0.265

Take each entry in turn and give its PBM binding z-score.
1. CCTATTAGTTGCCCATAAGGGCAACCGAAGCTCG
2. CGTCCAAGGTCAGCACGTCAGTGAAAGCGACGTG
3. CCTCGGAGGACAACAGGACGTCAGAGCTGCCAGA
4. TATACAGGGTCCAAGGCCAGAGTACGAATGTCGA
5. CCGACTGGGGCAGAAAGGTTATCATACCATCCGG
6. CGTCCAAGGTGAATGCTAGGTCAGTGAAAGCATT
7. TCCAGTTGGTCACGGAGGTCACACACGACGGGTA

Result block:
[0.866, -0.16, -0.769, 1.02, -0.748, -0.905, 0.101]

Take each entry in turn and give its PBM binding z-score.
1. ACAGGCAGGTGAGTGAAGGTAACTCAGCTGGACG
2. CCTACTGGGCCAAGGTCATTAATCAGTCAAAGCA
3. GTACCAAGGTGAATAGGTCGATGATGAGTAGGCG
4. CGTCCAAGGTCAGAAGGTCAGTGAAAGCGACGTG
5. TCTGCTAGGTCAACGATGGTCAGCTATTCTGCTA

Result block:
[-0.66, -0.0551, -0.293, -0.0292, -0.158]

---

For each record, write down the corresponding PBM binding z-score.
Tested on: PPARg:RXRa 270nM:90nM, anti-RXR (NR concentration 270 nM, RXRa partner concentration 90 nM)
Assay: PBM binding z-score (relative to random genomic background probes); higher = stronger binding; sequences stand for … in GC…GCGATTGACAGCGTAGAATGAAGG
Give bare numbers.

{"chain": "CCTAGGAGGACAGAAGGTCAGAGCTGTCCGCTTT", "PBM binding z-score": 2.08}

Take each entry in turn and give its PBM binding z-score.
1. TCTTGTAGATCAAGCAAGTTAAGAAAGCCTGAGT
2. TCATATAGGTAAATGCTAGGTGAAGGTCCGATCT
3. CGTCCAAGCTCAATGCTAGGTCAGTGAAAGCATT
4. CCTTCCGGGTCAAGGTTATAGCACGGGTGGTACG
5. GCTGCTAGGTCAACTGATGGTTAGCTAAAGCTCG
6. CGAACTAGGTCATTGACAGGACAGTGATTAGTAA
7. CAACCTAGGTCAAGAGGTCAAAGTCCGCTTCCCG

Result block:
[1.01, 2.13, -0.605, 5.24, 3.09, 6.17, 6.76]

Take each entry in turn and give its PBM binding z-score.
1. TCAGAGAGGTGAAGGTAACTCAGGTACGCAGTCG
2. TCTAGTTGGTCCAAGGTCACACACTCGAAATGCG
3. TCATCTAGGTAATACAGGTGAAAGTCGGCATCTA

Result block:
2.64
5.58
2.5

Query block: // PBM binding z-score lookup, key: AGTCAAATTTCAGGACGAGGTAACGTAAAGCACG
Result block: -0.178
